These data points were gathered from paper PMC11678425.

# subject-of-test: hSERT P560G (Homo sapiens, UniProt P31645, P560G)
# Construct: forward and reverse primers were used to amplify a full-length hSERT; expressed in transfected cells; host or cells: HeLa cells, transient, pcDNA3.1
# Sequence (P31645 whole entry P560G): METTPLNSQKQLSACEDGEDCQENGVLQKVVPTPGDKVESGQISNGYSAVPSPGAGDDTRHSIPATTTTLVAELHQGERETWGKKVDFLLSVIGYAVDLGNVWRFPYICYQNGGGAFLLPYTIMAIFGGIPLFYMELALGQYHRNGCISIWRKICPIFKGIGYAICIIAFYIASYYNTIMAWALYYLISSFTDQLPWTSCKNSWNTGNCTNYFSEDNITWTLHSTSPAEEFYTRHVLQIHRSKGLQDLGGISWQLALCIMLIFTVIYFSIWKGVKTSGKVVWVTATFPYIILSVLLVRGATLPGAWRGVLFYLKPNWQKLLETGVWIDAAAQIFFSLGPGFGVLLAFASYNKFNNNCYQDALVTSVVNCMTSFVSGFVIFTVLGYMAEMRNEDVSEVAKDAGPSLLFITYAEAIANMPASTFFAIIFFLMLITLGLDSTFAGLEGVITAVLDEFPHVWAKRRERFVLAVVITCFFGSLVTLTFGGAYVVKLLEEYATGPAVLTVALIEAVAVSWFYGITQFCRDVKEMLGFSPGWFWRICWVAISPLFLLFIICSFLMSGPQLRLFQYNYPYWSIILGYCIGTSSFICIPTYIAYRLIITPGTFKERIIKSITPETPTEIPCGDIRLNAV
# experiment-notes: APP^+ uptake, hSERT P560G
# Type: cell-based
# settings: S2 site mutant, read-out: SYR IC50 for Transport
pIC50: −log10 of the molar value.
parameter-measured: pIC50

* COc1cc([C@@H]2OC[C@@H]3[C@H]2CO[C@H]3c2cc(OC)c(O)c(OC)c2)cc(OC)c1O [SYR, (-)-syringaresinol] | 5.22

###

# subject-of-test: hSERT I172F (Homo sapiens, UniProt P31645, I172F)
# Construct: forward and reverse primers were used to amplify a full-length hSERT; expressed in transfected cells; host or cells: HeLa
# Sequence (P31645 whole entry I172F): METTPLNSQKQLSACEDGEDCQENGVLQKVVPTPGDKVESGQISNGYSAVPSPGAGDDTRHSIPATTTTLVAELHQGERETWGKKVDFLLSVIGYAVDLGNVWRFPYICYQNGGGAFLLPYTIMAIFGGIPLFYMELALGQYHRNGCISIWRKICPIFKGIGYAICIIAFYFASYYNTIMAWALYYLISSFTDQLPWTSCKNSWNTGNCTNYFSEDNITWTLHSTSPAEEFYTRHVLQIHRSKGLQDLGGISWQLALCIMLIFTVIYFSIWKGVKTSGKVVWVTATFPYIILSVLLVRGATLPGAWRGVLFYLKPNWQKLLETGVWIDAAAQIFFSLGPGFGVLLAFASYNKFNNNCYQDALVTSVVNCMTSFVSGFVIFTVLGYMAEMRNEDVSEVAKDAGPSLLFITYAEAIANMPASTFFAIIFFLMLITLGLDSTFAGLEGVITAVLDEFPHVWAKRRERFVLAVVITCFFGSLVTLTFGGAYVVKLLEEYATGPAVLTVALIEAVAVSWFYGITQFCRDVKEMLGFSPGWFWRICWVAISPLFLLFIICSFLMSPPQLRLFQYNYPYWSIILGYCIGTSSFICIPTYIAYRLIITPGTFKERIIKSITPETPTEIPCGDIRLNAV
# experiment-notes: APP^+ uptake, hSERT I172F
# Assay type: cell-based
# settings: S1 site mutant, read-out: SYR IC50 for Transport
parameter-measured: IC50 (nM)

- COc1cc([C@@H]2OC[C@@H]3[C@H]2CO[C@H]3c2cc(OC)c(O)c(OC)c2)cc(OC)c1O [SYR, (-)-syringaresinol]: 2220

###

# subject-of-test: hSERT L563A (Homo sapiens, UniProt P31645, L563A)
# Construct: forward and reverse primers were used to amplify a full-length hSERT; expressed in transfected cells; host or cells: HeLa
# Sequence (P31645 whole entry L563A): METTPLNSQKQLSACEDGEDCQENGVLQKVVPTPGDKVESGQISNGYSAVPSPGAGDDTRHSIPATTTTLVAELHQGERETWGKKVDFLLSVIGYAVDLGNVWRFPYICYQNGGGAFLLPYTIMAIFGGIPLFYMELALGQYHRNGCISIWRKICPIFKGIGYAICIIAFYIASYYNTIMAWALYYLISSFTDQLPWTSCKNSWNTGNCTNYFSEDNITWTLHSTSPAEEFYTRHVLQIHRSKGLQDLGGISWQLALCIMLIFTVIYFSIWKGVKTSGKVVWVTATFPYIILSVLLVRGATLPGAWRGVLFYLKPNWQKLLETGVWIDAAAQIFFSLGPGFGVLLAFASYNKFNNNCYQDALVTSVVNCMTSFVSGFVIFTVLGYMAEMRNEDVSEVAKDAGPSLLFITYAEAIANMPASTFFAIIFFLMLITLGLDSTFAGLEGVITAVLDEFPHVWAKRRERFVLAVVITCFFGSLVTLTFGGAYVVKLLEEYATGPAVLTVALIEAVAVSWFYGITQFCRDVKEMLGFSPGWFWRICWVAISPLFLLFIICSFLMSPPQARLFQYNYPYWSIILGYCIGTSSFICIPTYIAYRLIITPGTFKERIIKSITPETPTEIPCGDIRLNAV
# experiment-notes: APP^+ uptake, hSERT L563A
# Format: cell-based
# settings: S2 site mutant, read-out: SYR IC50 for Transport
pIC50: −log10 of the molar value.
parameter-measured: pIC50

- COc1cc([C@@H]2OC[C@@H]3[C@H]2CO[C@H]3c2cc(OC)c(O)c(OC)c2)cc(OC)c1O [SYR, (-)-syringaresinol]: 5.20

###

# subject-of-test: hSERT P499G (Homo sapiens, UniProt P31645, P499G)
# Construct: forward and reverse primers were used to amplify a full-length hSERT; expressed in transfected cells; host or cells: HeLa cells, transient, pcDNA3.1
# Sequence (P31645 whole entry P499G): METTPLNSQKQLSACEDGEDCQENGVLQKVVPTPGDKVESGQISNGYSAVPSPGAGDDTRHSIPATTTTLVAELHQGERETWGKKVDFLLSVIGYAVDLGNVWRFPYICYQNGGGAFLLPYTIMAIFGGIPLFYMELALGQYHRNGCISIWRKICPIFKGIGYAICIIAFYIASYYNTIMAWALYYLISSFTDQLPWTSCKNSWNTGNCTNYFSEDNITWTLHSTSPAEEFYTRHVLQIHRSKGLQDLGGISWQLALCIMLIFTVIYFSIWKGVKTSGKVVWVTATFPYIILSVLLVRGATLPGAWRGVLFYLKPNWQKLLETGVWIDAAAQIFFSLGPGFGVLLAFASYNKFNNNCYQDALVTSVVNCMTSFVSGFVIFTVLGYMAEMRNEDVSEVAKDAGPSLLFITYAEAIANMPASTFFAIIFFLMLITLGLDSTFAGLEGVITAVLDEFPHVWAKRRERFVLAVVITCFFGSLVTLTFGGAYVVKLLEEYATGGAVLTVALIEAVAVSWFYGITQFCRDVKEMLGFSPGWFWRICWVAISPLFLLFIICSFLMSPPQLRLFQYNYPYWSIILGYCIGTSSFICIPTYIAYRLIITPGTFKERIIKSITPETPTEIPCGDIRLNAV
# experiment-notes: APP^+ uptake, hSERT P499G
# Format: cell-based
# settings: S2 site mutant, read-out: SYR IC50 for Transport
parameter-measured: IC50 (µM)

• COc1cc([C@@H]2OC[C@@H]3[C@H]2CO[C@H]3c2cc(OC)c(O)c(OC)c2)cc(OC)c1O [SYR, (-)-syringaresinol] = 11

###

# subject-of-test: hSERT T583A (Homo sapiens, UniProt P31645, T583A)
# Construct: forward and reverse primers were used to amplify a full-length hSERT; expressed in transfected cells; host or cells: HeLa
# Sequence (P31645 whole entry T583A): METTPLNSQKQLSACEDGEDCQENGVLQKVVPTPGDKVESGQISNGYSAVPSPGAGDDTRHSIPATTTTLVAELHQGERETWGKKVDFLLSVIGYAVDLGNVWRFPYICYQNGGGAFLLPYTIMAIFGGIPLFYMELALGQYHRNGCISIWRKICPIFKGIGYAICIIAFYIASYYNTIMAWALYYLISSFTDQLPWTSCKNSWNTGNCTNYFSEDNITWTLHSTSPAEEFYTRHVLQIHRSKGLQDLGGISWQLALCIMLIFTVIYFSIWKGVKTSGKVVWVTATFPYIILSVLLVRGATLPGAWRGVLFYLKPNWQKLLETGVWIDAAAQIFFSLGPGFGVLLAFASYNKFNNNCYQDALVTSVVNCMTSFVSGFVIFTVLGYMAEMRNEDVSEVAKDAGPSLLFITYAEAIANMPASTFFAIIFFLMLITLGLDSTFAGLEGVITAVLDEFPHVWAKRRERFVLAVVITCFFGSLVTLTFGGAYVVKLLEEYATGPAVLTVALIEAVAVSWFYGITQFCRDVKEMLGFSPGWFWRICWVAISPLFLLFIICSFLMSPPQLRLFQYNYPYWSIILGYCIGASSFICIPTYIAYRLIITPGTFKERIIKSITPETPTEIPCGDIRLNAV
# experiment-notes: ASP^+ binding, hSERT T583A
# settings: S2 site mutant, read-out: SYR IC50 for Binding
pIC50: −log10 of the molar value.
parameter-measured: pIC50

* COc1cc([C@@H]2OC[C@@H]3[C@H]2CO[C@H]3c2cc(OC)c(O)c(OC)c2)cc(OC)c1O [SYR, (-)-syringaresinol] | 4.51

###

# subject-of-test: hSERT I172F (Homo sapiens, UniProt P31645, I172F)
# Construct: forward and reverse primers were used to amplify a full-length hSERT; expressed in transfected cells; host or cells: HeLa
# experiment-notes: ASP^+ binding, hSERT I172F
# settings: S1 site mutant, read-out: SYR IC50 for Binding
parameter-measured: IC50 (nM)

- COc1cc([C@@H]2OC[C@@H]3[C@H]2CO[C@H]3c2cc(OC)c(O)c(OC)c2)cc(OC)c1O [SYR, (-)-syringaresinol]: 1510
